B1: glmS ribozyme (parent)
chain: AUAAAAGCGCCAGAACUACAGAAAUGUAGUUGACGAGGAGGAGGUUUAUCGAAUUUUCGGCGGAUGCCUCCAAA

Variants of: B1
Assay: kcat; higher = faster cleavage; RNA array
Details: with glucosamine-6-phosphate
This sample holds only a part of the variants without activity.
Record form. Attribute: kcat. Fill in for each entry.
One number for each entry, in s⁻¹.

Example results:
G13A U56G :: 0.000892
A6U C16G :: 5.15e-05
U31C G41U :: 0.000175
A6G U47G :: 0.0001

Each variant below has a reported value. Please supply its kcat.
1. A42U A52G
2. U31A G63U U69G
3. G59U C67A
4. A39C C58A
5. A39U C67G

Result block:
1: 1.76e-05; 2: 3.2e-05; 3: 1.11e-05; 4: 0.000217; 5: 0.00521

Need kcat for each of these variants.
1. U31G G32C
2. U31C C58U
3. C50U C68U
4. C58G U69G
5. A6C C34A G37A G38A G63U C68U C70G
6. A12C G13U
7. A12C G29A

Result block:
1: 0.000616; 2: 2.26e-05; 3: 2.09e-05; 4: 4.22e-05; 5: 1.43e-05; 6: 0.000279; 7: 0.00648

Answer for every listed entry: what is its kcat? The entries follow.
1. U55G A64C
2. A36G C68G
3. A14U C68U
4. U65A C67A
5. A6U U69C
6. C10A C71G

Result block:
0.000152
1.27e-05
0.00143
9.68e-05
8.65e-05
3.78e-05

Dear reader, for each entry below, please note its kcat.
1. U45A A64C
2. U47C A52U
3. A39G U65G

Result block:
0.000366
0.00034
0.0131
